test: log P determination by LC-MS in the acidic range; type: physicochemical; conditions: Table 2, compounds of the formula (I-2); acidic range pH 2.7 or pH 2.3
Rule for this label: 1 means log P (acid) is less than 0.9; -1 means log P (acid) is at least 0.9.

These solved cases illustrate the format of a correct answer.
[
  {
    "Cpd smiles": "O=C(Nc1ncn(-c2ccccc2)n1)c1cccnc1",
    "Label class": -1
  },
  {
    "Cpd smiles": "Cc1nc(NC(=O)c2cccnc2)nn1Cc1ncccn1",
    "Label class": 1
  },
  {
    "Cpd smiles": "O=C(Nc1nc(Cl)n(-c2ccccc2)n1)c1cccnc1",
    "Label class": -1
  },
  {
    "Cpd smiles": "CCCn1cnc(NC(=O)c2cccnc2)n1",
    "Label class": 1
  },
  {
    "Cpd smiles": "COc1nc(NC(=O)c2cccnc2)nn1-c1ccccc1",
    "Label class": -1
  },
  {
    "Cpd smiles": "O=C(Nc1ncn(-c2ncccc2Br)n1)c1cccnc1",
    "Label class": 1
  },
  {
    "Cpd smiles": "COCn1cnc(NC(=O)c2cccnc2)n1",
    "Label class": 1
  },
  {
    "Cpd smiles": "CCn1nc(NC(=O)c2cccnc2)nc1SC",
    "Label class": 1
  },
  {
    "Cpd smiles": "CCc1nc(NC(=O)c2cccnc2)nn1C",
    "Label class": 1
  },
  {
    "Cpd smiles": "Cc1cc(C)nc(-n2cnc(NC(=O)c3cccnc3)n2)n1",
    "Label class": 1
  }
]

Query :: Bench note: check whether COc1ccc([N+](=O)[O-])cc1Cn1cnc(NC(=O)c2cccnc2)n1 shows log P (acid) below 0.9
Result :: -1

Query :: Bench note: check whether Cc1ccccc1Cn1cnc(NC(=O)c2cccnc2)n1 shows log P (acid) below 0.9
Result :: -1

Query :: Bench note: check whether COc1cc(OC)nc(-n2cnc(NC(=O)c3cccnc3)n2)n1 shows log P (acid) below 0.9
Result :: -1

Query :: Bench note: check whether O=C(Nc1ncn(-c2c(Cl)cc(S(=O)(=O)C(F)(F)F)cc2Cl)n1)c1cccnc1 shows log P (acid) below 0.9
Result :: -1

Query :: Bench note: check whether COc1ccnc(-n2cnc(NC(=O)c3cccnc3)n2)n1 shows log P (acid) below 0.9
Result :: 1
